Every entry's value here was drawn from ChEMBL document CHEMBL6121001.

# experimental details: Apparent permeability of compound at 1 mM incubated for 4 hrs by PAMPA based LC-MS/MS analysis
# Type: ADME
Please respond with reported Papp at 4 h, 1000 µM for every item in the list.
Give your result in ×10⁻⁶ cm/s as a bare value.

# molecule FC(F)(F)c1ccc(Cn2c(NC3CCN(Cc4ccccc4)CC3)nc3ccccc32)cc1 ; its Papp at 4 h, 1000 µM = 18

# molecule Oc1ccccc1CN1CCC(Nc2nc3ccccc3n2Cc2ccc(C(F)(F)F)cc2)CC1 ; its Papp at 4 h, 1000 µM = 23

# molecule Oc1ncccc1CN1CCC(Nc2nc3ccccc3n2Cc2ccc(C(F)(F)F)cc2)CC1 ; its Papp at 4 h, 1000 µM = 0.18
